These measurements were taken from patent US9957264B2.

compounds and their reported IC50
molecular target: JAK2 (recombinant purified GST-tagged catalytic domain) (Homo sapiens (Human)); experiment: Jak Biochemical HTRF Assay (JAK2); details: [ATP] 8.5 μM
Sequence (O60674 849-1124): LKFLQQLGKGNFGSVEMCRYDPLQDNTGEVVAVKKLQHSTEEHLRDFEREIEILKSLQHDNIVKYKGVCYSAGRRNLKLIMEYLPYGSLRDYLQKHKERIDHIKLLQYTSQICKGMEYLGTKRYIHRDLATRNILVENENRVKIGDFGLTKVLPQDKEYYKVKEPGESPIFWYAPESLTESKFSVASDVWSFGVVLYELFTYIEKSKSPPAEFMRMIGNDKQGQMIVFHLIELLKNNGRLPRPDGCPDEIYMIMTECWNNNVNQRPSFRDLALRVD
Property name: IC50 (nM)

CCNC(c1ccc(Nc2nn([C@@]3(CC#N)CCCC[C@H]3F)c3cc[nH]c(=O)c23)cc1)C(F)(F)F (single isomer, unassigned) [Example 5-173] = 0.07
Cc1cc(Nc2nn([C@@]3(CC#N)CCCC[C@H]3F)c3cc[nH]c(=O)c23)ccc1C(=O)N1CCC(F)(F)CC1 [Example 5-153] = 0.08
CC(C)(C)OC(=O)[C@@H]1CC[C@@](CC#N)(n2nc(Nc3ccc([C@H](N)C(F)(F)F)cc3)c3c(=O)[nH]ccc32)CO1 (single isomer, unassigned) [Example 5-53] = 0.57
CC(C)(C)OC(=O)N1CCC(CC#N)(n2nc(Nc3cc(Cn4cccn4)cc(Cn4cccn4)c3)c3c(=O)[nH]ccc32)CC1 [Example 5-60] = 0.46
CC(c1ccc(Nc2nn([C@]3(CC#N)CCCOC3)c3cc[nH]c(=O)c23)cc1)N1CCCC1 (single isomer, unassigned) [Example 5-201] = 0.27
CC(C)(C)OC(=O)N1CCC(CC#N)(n2nc(Nc3ccc(C4(C(F)(F)F)CCNC4)cc3)c3c(=O)[nH]ccc32)CC1 (single isomer, unassigned) [Example 5-282] = 0.49
N#CCC1(n2nc(Nc3ccc4c(c3)COC4=O)c3c(=O)[nH]ccc32)CCCC1 [Example 5-125] = 2.71
CC(C)(C)OC(=O)N1CCC(CC#N)(n2nc(Nc3ccc4c(c3)CNC4)c3c(=O)[nH]ccc32)CC1 [Example 5-66] = 0.43
CC(C)Oc1ccc(CN2CCC(CC#N)(n3nc(Nc4ccc(S(=O)(=O)N(C)C)cc4)c4c(=O)[nH]ccc43)CC2)cc1 [Example 8-6] = 12.4
CC1CCN1S(=O)(=O)c1ccc(Nc2nn([C@]3(CC#N)CCCOC3)c3cc[nH]c(=O)c23)cc1 (single isomer, unassigned) [Example 5-109] = 0.29
N#CC[C@]1(n2nc(Nc3ccc([C@]4(C(F)(F)F)CCCCN4)cc3)c3c(=O)[nH]ccc32)CCOC[C@H]1F (single isomer, unassigned) [Example 5-263] = 0.77
CC(C)(C)OC(=O)[C@@H]1CC[C@@](CC#N)(n2nc(Nc3ccc4c(c3)CN(C3CCCCC3)C4=O)c3c(=O)[nH]ccc32)CO1 [Example 5-101] = 0.4
CC(C)(C)OC(=O)[C@@H]1CC[C@@](CC#N)(n2nc(Nc3ccc(S(=O)(=O)C4CC4)cc3)c3c(=O)[nH]ccc32)CO1 [Example 5-236] = 0.25
CN(C(C)(C)C)S(=O)(=O)c1ccc(Nc2nn(C3(CC#N)CCOCC3)c3cc[nH]c(=O)c23)cc1 [Example 5-253] = 1.4
CC(C)(C)NC(c1ccc(Nc2nn([C@]3(CC#N)CC[C@@H](C(=O)OC(C)(C)C)OC3)c3cc[nH]c(=O)c23)cc1)C(F)(F)F (single isomer, unassigned) [Example 5-195] = 0.68
Cc1cc(Nc2nn([C@]3(CC#N)CC[C@@H](C(=O)OC(C)(C)C)OC3)c3cc[nH]c(=O)c23)ccc1C(=O)N1CCSC1 [Example 5-155] = 0.39
N#CC[C@]1(n2nc(Nc3ccc(OC(F)(F)F)cc3)c3c(=O)[nH]ccc32)CC[C@H](Nc2ccccc2)CC1 [Example 18-18] = 54.7
CN(C)S(=O)(=O)c1ccc(Nc2nn(C3(CC#N)CCOCC3)c3cc[nH]c(=O)c23)cc1 [Example 5-254] = 1.4
CC(C)(C)OC(=O)N1CC[C@](CC#N)(n2nc(Nc3ccc4c(c3)CN(C(C)(C)C)S4(=O)=O)c3c(=O)[nH]ccc32)[C@H](F)C1 [Example 5-22] = 0.19
CC(C)(C)OC(=O)N1CC[C@@](CC#N)(n2nc(Nc3ccc(S(C)(=O)=O)cc3)c3c(=O)[nH]ccc32)[C@@H](F)C1 [Example 5-16] = 0.35
COC(=O)N1CCC(CC#N)(n2nc(Nc3ccc(C(C)(O)C(F)(F)F)cc3)c3c(=O)[nH]ccc32)CC1 (single isomer, unassigned) [Example 5-141] = 0.43
CC(C)(C)OC(=O)N1CCC(CC#N)(n2nc(Nc3ccc(C4(C(F)(F)F)CCNC4)cc3)c3c(=O)[nH]ccc32)CC1 (single isomer, unassigned) [Example 5-283] = 0.43
CCN(CC(F)(F)F)C(=O)c1ccc(Nc2nn([C@]3(CC#N)CC[C@@H](C(=O)OC(C)(C)C)OC3)c3cc[nH]c(=O)c23)cc1C [Example 20-14] = 0.51
